Attribution: patent US7910556B2

- TEST TARGET: PAR-2 (Homo sapiens, UniProt P55085)
- Sequence (P55085 26-397): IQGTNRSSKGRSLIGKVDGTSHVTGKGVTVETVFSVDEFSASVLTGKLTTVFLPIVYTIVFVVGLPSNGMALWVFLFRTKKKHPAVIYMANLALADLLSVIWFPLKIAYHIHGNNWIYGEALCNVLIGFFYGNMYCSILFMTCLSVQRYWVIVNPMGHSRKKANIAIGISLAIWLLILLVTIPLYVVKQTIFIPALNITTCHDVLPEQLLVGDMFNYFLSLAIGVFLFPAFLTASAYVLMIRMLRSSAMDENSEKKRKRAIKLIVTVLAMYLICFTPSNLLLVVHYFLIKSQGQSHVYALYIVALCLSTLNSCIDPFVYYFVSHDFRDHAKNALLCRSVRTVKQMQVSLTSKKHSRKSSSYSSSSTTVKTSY
- TEST PROTOCOL: Intracellular calcium dynamics assay (modified Hawthorne et al. method) in HCT-15 cells
- Assay type: cell-based
- Design: endogenous in cells; host or cells: HCT-15 human colorectal adenocarcinoma cells
Square brackets hold non-standard residues; d marks the D form. Peptide text beside a SMILES is read from it. * marks the point of attachment. NHCH2CH2(piperidin-1-yl) = C1CCN(CCN*)CC1; Benzofuran(2-CO) = O=C(c1cc2ccccc2o1)*; Cha = N[C@@H](CC1CCCCC1)C(=O)O; Nicotinoyl = O=C(c1cccnc1)*; 2Furoyl = O=C(c1ccco1)*; X2 = O=C(c1ccc(Br)o1)*
MEASURED ATTRIBUTE: pEC50
Answers are plain numbers, as −log10 of the molar value.

O=C(CNC(=O)[C@H](CC1CCCCC1)NC(=O)c1ccc(Br)o1)NCC(=O)N[C@@H](CC1CCCCC1)C(=O)NCCN1CCCCC1 [Example 3] (X2-[Cha]GG[Cha]-{NHCH2CH2(piperidin-1-yl)})    6.15
O=C(CNC(=O)[C@H](CC1CCCCC1)NC(=O)c1cc2ccccc2o1)NCC(=O)N[C@@H](CC1CCCCC1)C(=O)NCCN1CCCCC1 [Example 5] ({Benzofuran(2-CO)}-[Cha]GG[Cha]-{NHCH2CH2(piperidin-1-yl)})    6.10

Batch request: pEC50 for each of the following compounds.
1. O=C(CNC(=O)[C@H](CC1CCCCC1)NC(=O)c1cccnc1)NCC(=O)N[C@@H](CC1CCCCC1)C(=O)NCCN1CCCCC1 [Example 4] (Nicotinoyl-[Cha]GG[Cha]-{NHCH2CH2(piperidin-1-yl)})
2. O=C(CNC(=O)[C@H](CC1CCCCC1)NC(=O)c1ccco1)NCC(=O)N[C@@H](CC1CCCCC1)C(=O)NCCN1CCCCC1 [Example 1] (2Furoyl-[Cha]GG[Cha]-{NHCH2CH2(piperidin-1-yl)})

Outgoing:
5.80
4.78
